- System: NCI-H292 lung cancer cells
- experimental_protocol: FDA drug screening, complete media vs cholesterol-free media with simvastatin (TABLE 2)
- Type: cell-based, human
- run_parameters: NCI-H292 cells, drug in cholesterol-free media with simvastatin 0.04 μM
Counter-ions that a name gives are not always drawn.
Answer each item with its documented Cholesterol-free media + simvastatin (0.04 μM).
Numbers only.

Each molecule below has a reported value. Please supply its Cholesterol-free media + simvastatin (0.04 μM).
1. O=C(O)P(=O)(O)O [Foscarnet (sodium)]
2. O=C1c2cccc(O)c2C(=O)c2c(O)cccc21
3. CC(C)(C)NC(=O)[C@@H]1C[C@@H]2CCCC[C@@H]2CN1C[C@@H](O)[C@H](Cc1ccccc1)NC(=O)[C@H](CC(N)=O)NC(=O)c1ccc2ccccc2n1
4. Nc1ccc(O)c(C(=O)O)c1

Reply:
1. 1.224
2. 1.634
3. 0.9867
4. 1.224

Each molecule below has a reported value. Please supply its Cholesterol-free media + simvastatin (0.04 μM).
1. [H]/N=C(/N)NS(=O)(=O)c1ccc(N)cc1
2. O=C(O)[C@H](CC(=O)N1C[C@H]2CCCC[C@H]2C1)Cc1ccccc1 [Mitiglinide (Calcium)]
3. C[C@]12CC[C@@H]3c4ccc(OC(=O)c5ccccc5)cc4CC[C@H]3[C@@H]1CC[C@@H]2O [Estradiol benzoate]
4. CC(C)(C)c1cc(NC(=O)Nc2ccc(-c3cn4c(n3)sc3cc(OCCN5CCOCC5)ccc34)cc2)no1
5. NS(=O)(=O)c1cc(C2(O)NC(=O)c3ccccc32)ccc1Cl (stereo not shown)
6. Cc1cnc(Nc2ccc(OCCN3CCCC3)cc2)nc1Nc1cccc(S(=O)(=O)NC(C)(C)C)c1 [Fedratinib (hydrochloride hydrate)]
7. O=C(NCc1c(F)cc(F)cc1F)c1cn2c(c(O)c1=O)C(=O)N1[C@H]3CC[C@H](C3)O[C@@H]1C2
8. C=CCN1C[C@H](C(=O)N(CCCN(C)C)C(=O)NCC)C[C@@H]2c3cccc4[nH]cc(c34)C[C@H]21

Reply:
1. 1.092
2. 1.855
3. 1.387
4. 1.022
5. 1.215
6. 0.6402
7. 1.109
8. 1.138

Each molecule below has a reported value. Please supply its Cholesterol-free media + simvastatin (0.04 μM).
1. COc1ccc2cc1Oc1ccc(cc1)C[C@H]1c3cc(c(OC)cc3CCN1C)Oc1c(OC)c(OC)cc3c1[C@H](C2)N(C)CC3
2. CC(C)(Sc1cc(C(C)(C)C)c(O)c(C(C)(C)C)c1)Sc1cc(C(C)(C)C)c(O)c(C(C)(C)C)c1
3. CCCNC(C)C(=O)Nc1ccccc1C (stereo not shown)
4. CN1[C@@H]2CC[C@H]1C[C@@H](OC(=O)[C@H](CO)c1ccccc1)C2

Reply:
1. 1.133
2. 1.293
3. 1.231
4. 1.192
